molecular target: MGL (Rattus norvegicus); construct: one g rat brain was homogenized using a Polytron homogenizer; from tissue; host or cells: rat brain homogenate; assay: 2-AG accumulation assay in rat brain homogenate; format: biochemical; conditions: rat brain homogenate; compound 1 μM; 2-AG accumulation as percent of vehicle; read-out: Rat Brain 2AG % VehCntrl (%) @ 1 μM
Sequence (Q8R431 whole entry): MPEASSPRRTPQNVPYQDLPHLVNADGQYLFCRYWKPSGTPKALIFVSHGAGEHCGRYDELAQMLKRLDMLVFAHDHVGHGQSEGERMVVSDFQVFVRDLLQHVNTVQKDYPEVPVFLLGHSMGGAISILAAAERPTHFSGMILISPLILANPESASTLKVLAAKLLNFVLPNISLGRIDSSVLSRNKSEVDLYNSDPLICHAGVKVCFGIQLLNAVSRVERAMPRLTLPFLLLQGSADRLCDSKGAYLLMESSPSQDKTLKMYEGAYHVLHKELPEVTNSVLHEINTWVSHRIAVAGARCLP
Reported Metric: 2-AG accumulation, % of vehicle control at 1 µM (%)

P: O=C(c1ccc2c(cnn2-c2ccccc2)c1)N1CC(N2CCN(C(=O)c3nccs3)CC2)C1
Q: CCCCCCCC/C=C\CCCCCCCC(=O)N1CC(N2CCN(C(=O)c3nccs3)CC2)C1
input: API: POST /compare with P and Q ; response names the item with higher 2-AG accumulation, % of vehicle control at 1 µM. State the label of the item chosen.
output: P
(P: 576%, Q: 397%)

P: NC(=O)c1cccc(-n2ccc3cc(C(=O)N4CC(N5CCN(C(=O)c6nccs6)CC5)C4)ccc32)c1
Q: O=C(c1ccc2nc(-c3cccc(F)c3)sc2c1)N1CC(N2CCN(C(=O)c3nccs3)CC2)C1
R: O=C(c1ccc(OCc2ccncc2)c(Cl)c1)N1CC(N2CCN(C(=O)c3nccs3)CC2)C1
input: Order the entries by their reported 2-AG accumulation, % of vehicle control at 1 µM, beginning at the minimum. Kindly provide the labels arranged according to the requested ordering.
output: R, Q, P

1: O=C(c1ccc(C(F)(F)F)cc1)N1CCc2cc(C(=O)N3CC(N4CCN(C(=O)c5nccs5)CC4)C3)ccc2C1
2: O=C(c1ccc(-c2ccccc2)c(F)c1)N1CC(N2CCN(C(=O)c3nccs3)CC2)C1
3: O=C(c1nccs1)N1CCN(C2CN(C(=O)[C@@H]3C[C@H]3c3ccccc3Cl)C2)CC1 (racemic)
input: Order the records so the highest 2-AG accumulation, % of vehicle control at 1 µM appears first and the lowest last. Kindly provide the labels arranged according to the requested ordering.
output: 1, 2, 3
(1: 867%, 2: 509%, 3: 170%)
